tested on: LOX IMVI melanoma; assay: NCI-60 one-dose screen, 48 h; conditions: 10 µM
About 83,000 compounds went through this panel and 20% of them were active in at least one assay; those are over-represented in the sample as a whole. Calls of active or inactive are those of the source. How the source made its calls: active means growth percent below 10; inactive means the rest.
Your response should consist of one outcome taken from true (1) (active), false (0) (inactive)

For orientation, consider the following solved cases.
molecule	category
CC(=O)/C=C/c1cccc2c1C(=O)NC(C)(c1cc3cc(Br)ccc3oc1=O)N2 (centres undefined)	false (0)
CC(/C=C1\SC(=S)N(CCCC(=O)NC(CC(C)C)C(=O)O)C1=O)=C\c1ccccc1 (centres undefined)	false (0)
O=C1N/C(=N\c2nccs2)S/C1=C\C=C/c1ccccc1	false (0)
C=CC(=O)Nc1ccc(C)c(Oc2ccc(Cl)cc2)c1	false (0)
COc1ccc(C(=O)/C=C/c2cccc(Br)c2)cc1S(N)(=O)=O	true (1)

Ask | Name the outcome recorded for Cc1ccc(C2CC(c3ccc(S(=O)(=O)NCCNc4nc(Nc5ccc(F)cc5)nc(N(C)C)n4)cc3)=Nc3c(N)nc(N)nc3N2)cc1 (centres undefined) in the assay.
Reply | true (1)

Ask | Name the outcome recorded for Cn1cc(NC(=O)c2cc(NC(=O)c3ccc(/C=C/c4ccccc4)cc3)cn2C)cc1C(=O)NCCCN1CCOCC1 in the assay.
Reply | true (1)

* * *

test system: CCRF-CEM leukemia; test: NCI-60 one-dose screen, 48 h (100 = growth as untreated, 0 = no growth, -100 = all killed); details: 10 µM unless noted
This is part of a sample that, as a whole, favours compounds with a hit. Of some 83,000 tested, about 20% had one in any assay.
endpoint: growth (%)
Kindly answer with a numeric value in %, unit omitted.

Solved cases below.
compound	measured
O=C(O)c1cccc(-c2ccc(/C=N/NC(=O)c3[nH]c4ccc(Br)cc4c3-c3ccccc3)s2)c1	31
Cc1ccc(/C=C/c2n(Cc3ccc4ccccc4c3)c3ccccc3[n+]2Cc2ccc3ccccc3c2)cc1	-66.1
C=C1CC[C@@H]2[C@]3(C)COC(c4cn(-c5ccccc5)nc4-c4ccccc4)O[C@@H]3CC[C@@]2(C)[C@@H]1C/C=C1/C(=O)OC[C@H]1O (some centres undefined)	31.5

So the reported growth for COc1cc2c(c(OC)c1OC)C(=O)CC(c1cccc(NC(=O)[C@@H](N)CC(C)C)c1)O2 (some centres undefined) , on CCRF-CEM leukemia, turned out to be 97.6

* * *

tested on: DU-145 prostate; assay: NCI-60 one-dose screen, 48 h; details: 10 µM unless noted
Compounds without any hit were thinned out: in the full panel of roughly 83,000, 20% have a hit. The source made the active and inactive calls. Rule for the calls: active = growth percent below 10; inactive = the rest.
Your response should consist of one outcome taken from Y = active, N = inactive

compound	category
O=C(N/N=C/c1ccc(-c2ccc(O)cc2)o1)c1[nH]c2ccc(Br)cc2c1-c1ccccc1	Y
Cc1ccc(C(=O)NN2C(=O)/C(=C/C=C/c3ccc([N+](=O)[O-])o3)SC2=S)cc1	Y
COCOc1cc2oc(C(=O)N[C@@H](Cc3ccccc3)C(O)C(=O)NCc3ccccc3)c(C)c(=O)c2cc1OCOC (some centres not stated)	N
O=C(/C=C/c1ccc(O)c(O)c1)NC1CCOC1O (configuration not stated)	N
Nc1nc(-c2ccccc2)c(N=Nc2ccc(Cl)cc2[N+](=O)[O-])s1	N

Ask | Name the outcome recorded for COc1cc2c(c(OC)c1OC)C(=O)CC(c1cccc(NC(=O)c3cc(NC(=O)[C@H](C)N)ccc3Cl)c1)O2 (some centres not stated) in the assay.
Reply | N

Ask | Name the outcome recorded for O=C(COc1ccc(NC(=O)Nc2ccc(Cl)c(Cl)c2)cc1)N=Nc1c(O)[nH]c2ccc(Br)cc12 in the assay.
Reply | Y

Ask | Name the outcome recorded for COc1ccc(/C=C/c2nc3ccccc3c(=O)n2CC(=O)Nc2ccc(OC)cc2)cc1 in the assay.
Reply | N

Ask | Name the outcome recorded for Nc1nnc(-c2c[nH]c3ncc(Br)cc23)c(-c2c[nH]c3ccc(F)cc23)n1 in the assay.
Reply | N

Ask | Name the outcome recorded for CCCCn1c(O)c(N=Nc2nc(-c3cc4ccccc4oc3=O)cs2)c2cc(Br)ccc21 in the assay.
Reply | N
